Where do the numbers come from? From patent US20210387978A1.

Measured On: Human Nav1.7 (Homo sapiens, UniProt Q15858)
Sequence (Q15858 whole entry): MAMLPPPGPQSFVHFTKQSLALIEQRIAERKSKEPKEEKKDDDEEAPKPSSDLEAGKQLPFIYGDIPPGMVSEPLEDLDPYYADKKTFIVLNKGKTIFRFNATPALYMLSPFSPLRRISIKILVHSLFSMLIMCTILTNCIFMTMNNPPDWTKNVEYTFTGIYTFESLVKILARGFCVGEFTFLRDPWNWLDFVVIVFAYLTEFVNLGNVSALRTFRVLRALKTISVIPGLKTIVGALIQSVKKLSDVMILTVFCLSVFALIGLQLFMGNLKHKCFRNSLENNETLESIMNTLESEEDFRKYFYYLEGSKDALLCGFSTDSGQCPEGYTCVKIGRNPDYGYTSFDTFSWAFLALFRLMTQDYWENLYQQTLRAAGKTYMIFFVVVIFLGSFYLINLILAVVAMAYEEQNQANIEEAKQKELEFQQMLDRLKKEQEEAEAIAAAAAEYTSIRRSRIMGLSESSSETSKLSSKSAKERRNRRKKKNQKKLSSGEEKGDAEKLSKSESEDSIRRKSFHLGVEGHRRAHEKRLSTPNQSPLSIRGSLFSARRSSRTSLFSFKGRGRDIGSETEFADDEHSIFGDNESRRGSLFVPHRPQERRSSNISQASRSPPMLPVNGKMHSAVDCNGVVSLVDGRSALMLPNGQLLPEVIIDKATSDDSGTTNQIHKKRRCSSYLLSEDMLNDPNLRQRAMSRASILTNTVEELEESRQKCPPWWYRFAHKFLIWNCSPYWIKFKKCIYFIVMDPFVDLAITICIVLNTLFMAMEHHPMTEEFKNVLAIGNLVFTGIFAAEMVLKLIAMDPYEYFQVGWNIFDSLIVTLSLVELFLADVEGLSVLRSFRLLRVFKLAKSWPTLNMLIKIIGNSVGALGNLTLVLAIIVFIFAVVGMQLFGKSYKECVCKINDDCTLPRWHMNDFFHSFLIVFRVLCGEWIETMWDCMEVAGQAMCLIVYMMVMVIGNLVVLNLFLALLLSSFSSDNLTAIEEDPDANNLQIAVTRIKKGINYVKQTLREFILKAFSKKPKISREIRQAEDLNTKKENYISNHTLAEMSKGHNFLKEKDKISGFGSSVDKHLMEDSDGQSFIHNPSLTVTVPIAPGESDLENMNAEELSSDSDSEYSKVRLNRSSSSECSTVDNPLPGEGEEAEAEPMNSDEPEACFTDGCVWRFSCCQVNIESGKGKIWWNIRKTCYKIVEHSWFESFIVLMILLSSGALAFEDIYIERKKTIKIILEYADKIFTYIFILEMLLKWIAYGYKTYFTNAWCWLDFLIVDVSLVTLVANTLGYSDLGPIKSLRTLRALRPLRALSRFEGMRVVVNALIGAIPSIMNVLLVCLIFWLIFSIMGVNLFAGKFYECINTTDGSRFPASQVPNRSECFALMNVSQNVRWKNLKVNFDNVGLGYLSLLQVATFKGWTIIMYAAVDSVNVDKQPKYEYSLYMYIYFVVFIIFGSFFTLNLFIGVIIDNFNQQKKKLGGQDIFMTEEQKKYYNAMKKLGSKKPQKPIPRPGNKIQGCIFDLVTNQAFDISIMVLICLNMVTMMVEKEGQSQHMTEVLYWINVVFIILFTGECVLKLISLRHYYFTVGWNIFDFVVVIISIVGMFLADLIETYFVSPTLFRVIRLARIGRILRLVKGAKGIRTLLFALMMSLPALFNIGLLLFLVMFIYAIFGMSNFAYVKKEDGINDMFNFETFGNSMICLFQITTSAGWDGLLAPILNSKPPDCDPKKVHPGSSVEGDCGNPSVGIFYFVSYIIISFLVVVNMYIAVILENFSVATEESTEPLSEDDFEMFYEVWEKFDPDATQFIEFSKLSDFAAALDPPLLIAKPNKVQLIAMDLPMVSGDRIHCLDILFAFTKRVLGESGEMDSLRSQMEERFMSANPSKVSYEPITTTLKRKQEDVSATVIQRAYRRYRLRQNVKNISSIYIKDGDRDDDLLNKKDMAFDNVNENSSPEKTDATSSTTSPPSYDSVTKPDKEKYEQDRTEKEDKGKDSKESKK
Procedure Text: IonWorks Barracuda (IWB) automated patch clamp assay
Run Conditions: human Nav1.7 currents, HEK cells, population patch-clamp, state- and use-dependent voltage protocol; read-out: hNaV1.7 IWB-U IC50
Recorded Endpoint: IC50 (nM)

COc1cc(C2CC(C(C)(C)C)C2)c(F)cc1-n1c(=O)ccc2cc(S(=O)(=O)Nc3ccon3)ccc21 (atropisomer, axis not shown; (P))
33
COc1cc(C2CCC2)c(F)cc1-n1c(=O)ccc2cc(S(=O)(=O)Nc3ncco3)ccc21 (atropisomer, axis not shown; (P))
13
COc1cc(C23CC(C(F)(F)F)(C2)C3)c(F)cc1-n1c(=O)ccc2cc(S(=O)(=O)Nc3ncccn3)ccc21 (atropisomer, axis not shown; (P))
8
COc1cc([C@H]2C[C@H](C(F)(F)F)C2)c(F)cc1-n1c(=O)ccc2c(F)c(S(=O)(=O)Nc3ccon3)ccc21 (atropisomer, axis not shown; (P))
8
COc1cc(C2CCC2)c(Cl)cc1-n1c(=O)ccc2cc(S(=O)(=O)Nc3ccon3)ccc21 (atropisomer, axis not shown; (P))
12
COc1cc(C2CC(F)(F)C2)c(F)cc1-n1c(=O)ccc2cc(S(=O)(=O)Nc3ccon3)c(F)cc21 (atropisomer, axis not shown; (P))
11
COc1cc(C2CCC2)ccc1-n1c(=O)ccc2cc(S(=O)(=O)Nc3ncco3)ccc21 (atropisomer, axis not shown; (P))
37
COc1cc([C@H]2C[C@@H](C(F)(F)F)C2)c(Cl)cc1-n1c(=O)ccc2cc(S(=O)(=O)Nc3ncccn3)ccc21 (atropisomer, axis not shown; (P))
18
COc1cc(C2CC(F)(F)C2)c(Cl)cc1-n1c(=O)ccc2cc(S(=O)(=O)Nc3ccon3)ccc21 (atropisomer, axis not shown; (P))
10
COc1cc(C2CCC2)c(C)cc1-n1c(=O)ccc2cc(S(=O)(=O)Nc3ccon3)ccc21 (atropisomer, axis not shown; (P))
50

A. COc1cc([C@H]2C[C@H](C(F)(F)F)C2)c(Cl)cc1-n1c(=O)ccc2cc(S(=O)(=O)Nc3cccnn3)ccc21 (atropisomer, axis not shown; (P))
B. COc1cc(C2CCC2)c(Cl)cc1-n1c(=O)ccc2cc(S(=O)(=O)Nc3ncccn3)ccc21 (atropisomer, axis not shown; (P))
Ask: Which has the higher IC50, A or B ? Output the label that corresponds to your choice.
Result: B
(B: 22 nM, A: 15 nM)

1. COc1cc([C@H]2C[C@H](C(F)(F)F)C2)ccc1-n1c(=O)ccc2cc(S(=O)(=O)Nc3ncccn3)ccc21 (atropisomer, axis not shown; (P))
2. COc1cc(C2CCC2)c(F)cc1-n1c(=O)ccc2cc(S(=O)(=O)Nc3cccnn3)ccc21 (atropisomer, axis not shown; (P))
3. COc1cc(C2CC(F)(C(F)(F)F)C2)c(F)cc1-n1c(=O)ccc2cc(S(=O)(=O)Nc3ccon3)ccc21 (atropisomer, axis not shown; (P))
Ask: Sort the 3 molecules by IC50; largest first, smallest last. A ranking is expressed here by listing the labels in the requested order.
Result: 2, 1, 3

----------
Measured On: Human Nav1.7 (Homo sapiens)
Procedure Text: IonWorks Barracuda (IWB) automated patch clamp assay
Run Conditions: human Nav1.7 currents, HEK cells, population patch-clamp, state- and use-dependent voltage protocol; read-out: hNaV1.7 IWB-U IC50
Recorded Endpoint: IC50 (nM)

Use these answered entries as a reference point.
COc1cc(C2CCC2)c(C)cc1-n1c(=O)ccc2cc(S(=O)(=O)Nc3ncccn3)ccc21 (atropisomer, axis not shown; (P)) [Example 27]
104
COc1cc(C2CCC2)c(F)cc1-n1c(=O)ccc2cc(S(=O)(=O)Nc3ccon3)ccc21 (atropisomer, axis not shown; (P)) [Example 14]
16
COc1cc([C@H]2C[C@H](C(F)(F)F)C2)ccc1-n1c(=O)ccc2cc(S(=O)(=O)Nc3cccnn3)ccc21 (atropisomer, axis not shown; (P)) [Example 38]
21
COc1cc(C23CC(C(F)(F)F)(C2)C3)c(F)cc1-n1c(=O)ccc2cc(S(=O)(=O)Nc3ccon3)ccc21 (atropisomer, axis not shown; (P)) [Example 42]
6
COc1cc([C@H]2C[C@H](C(F)(F)F)C2)c(C)cc1-n1c(=O)ccc2cc(S(=O)(=O)Nc3ccon3)ccc21 (atropisomer, axis not shown; (P)) [Example 20]
12

a. COc1cc([C@H]2C[C@H](C(F)(F)F)C2)c(Cl)cc1-n1c(=O)ccc2cc(S(=O)(=O)Nc3ncccn3)ccc21 (atropisomer, axis not shown; (P)) [Example 17]
b. COc1cc(C2CCC2)ccc1-n1c(=O)ccc2cc(S(=O)(=O)Nc3ncccn3)ccc21 (atropisomer, axis not shown; (P)) [Example 26]
Ask: Which has the higher IC50, a or b ? Output the label that corresponds to your choice.
Result: b
